test system: M14 melanoma; assay: NCI tumour cell line growth inhibition, 48 h; in the data active = GI50 below about 0.43 µM; inactive = the rest
Mark one answer only. Choices: True for active, False for inactive

molecule: C[CH2][Sn]([CH2]C)([O]C(=O)c1ccc(OC)c(OC)c1OC)[O]C(=O)c1ccc(OC)c(OC)c1OC
system tested: M14 melanoma
cat: False
--
molecule: CCOP1(=O)C=C(C)C(=C(Cl)Cl)C(C)=C1 (stereo not drawn)
system tested: M14 melanoma
cat: False
--
molecule: CSc1ccc(C(=O)/C=C/c2ccccc2Cl)cc1
system tested: M14 melanoma
cat: False
--
molecule: Cc1nccc2c3ccc(OCc4cn(-c5ccc(Cl)cc5)nn4)cc3n(CC(C)C)c12
system tested: M14 melanoma
cat: False
--
molecule: COc1ccc2c(c1)C(=O)c1c-2c(Nc2cccc(C(C)=O)c2)nc2ccccc12
system tested: M14 melanoma
cat: False
--
molecule: C[C@@H](Oc1cc(-n2cnc3ccc(OC[C@@H](O)CO)cc32)sc1C(N)=O)c1ccccc1Cl
system tested: M14 melanoma
cat: True
--
molecule: COc1cnc2c(c1)C(=O)c1c-2n(CCCN2CCNCC2)c(=O)c2cc([N+](=O)[O-])ccc12
system tested: M14 melanoma
cat: True

We next turn to a different molecule, shown below.
Q. What was the test verdict on CN(C)c1ccc(N=C2C=CC(=O)c3ccccc32)cc1 ?
A. False
